Test: NCI Yeast Anticancer Drug Screen. Data for the sgs1 mgt1 strain (AID 161)
Settings: S. cerevisiae sgs1 mgt1 strain, at 5.0 µM (retest, dose inferred, filed as 0.5)
Method: Growth inhibition of yeast strains with defined genetic alterations is measured as a screen for potential anti-cancer activity. Selected strains with alterations in DNA damage repair or cell cycle control were exposed to compounds and growth inhibition was measured relative to vehicle treated controls. The strain used in this assay is sgs1 mgt1
About 79,000 compounds went through this panel and 15% of them were active in at least one assay; those are over-represented in the sample as a whole. Active and inactive are the calls of the source. Cut-off read from the data, not from the text of the source: active = growth inhibition above about 70%; inactive = the rest.
Log the outcome using a class from active, inactive

Data request: Query: recorded result category for CSc1nc2c(c(=O)[nH]1)C1C=C(C)CCC1C(C)(C)C2 (configuration not stated) in this test
Data returned: inactive

Data request: Query: recorded result category for C/C(=N\NC(N)=S)c1ccc(Oc2ccccc2)cc1 in this test
Data returned: inactive

Data request: Query: recorded result category for O=c1c(Cl)c(Cl)oc(Cl)c1Cl in this test
Data returned: inactive

Data request: Query: recorded result category for Cc1ccc(C)c(C(=O)/C=C/C(=O)O)c1 in this test
Data returned: inactive

Data request: Query: recorded result category for O=c1[nH]cc(F)c(=O)n1C1CCCCO1 (configuration not stated) in this test
Data returned: inactive

Data request: Query: recorded result category for CC(=O)NC1C(=O)CC(c2ccccc2)N(C)C1c1ccccc1 (configuration not stated) in this test
Data returned: inactive

Data request: Query: recorded result category for O=C(Nc1ccc(C(F)(F)F)cc1[N+](=O)[O-])C(=O)C(C(=O)c1ccc2ccccc2c1)C1OC(=O)c2ccccc21 (configuration not stated) in this test
Data returned: inactive

Data request: Query: recorded result category for O=C(COc1ccccc1)Oc1c(Cl)c(Cl)c(Cl)c(Cl)c1Cl in this test
Data returned: inactive

Data request: Query: recorded result category for CN(C)CCCNc1c2ccccc2nc2cccc([N+](=O)[O-])c12 in this test
Data returned: active

Data request: Query: recorded result category for Nc1ncc(C(=O)c2ccccc2)cc1[N+](=O)[O-] in this test
Data returned: inactive

Data request: Query: recorded result category for CCC(C(=O)CCN(C)C)(c1ccccc1)c1ccccc1 in this test
Data returned: active

Data request: Query: recorded result category for CN=C(N)NN=C(c1ccc(Cl)cc1)c1ccc(Cl)cc1 in this test
Data returned: inactive

Data request: Query: recorded result category for Cc1ccc(/[N+]([O-])=C/c2ccccc2)cc1 in this test
Data returned: inactive

Data request: Query: recorded result category for O=C(O)c1ccc(Br)cc1C(=O)c1ccccc1 in this test
Data returned: inactive

Data request: Query: recorded result category for CC1(C)CC(=O)C2=C(C1)Nc1ccccc1CC2c1c[nH]c2ccccc12 (configuration not stated) in this test
Data returned: inactive

Data request: Query: recorded result category for COC1OC(CBr)C(OC(c2ccccc2)(c2ccccc2)c2ccccc2)C(OC(c2ccccc2)(c2ccccc2)c2ccccc2)C1OC(c1ccccc1)(c1ccccc1)c1ccccc1 (configuration not stated) in this test
Data returned: inactive

Data request: Query: recorded result category for O=S1(=O)CC=C1c1ccccc1 in this test
Data returned: inactive

Data request: Query: recorded result category for COc1cc2c(cc1OC)NCC1COc3c(ccc(OC)c3OC)C1=N2 (configuration not stated) in this test
Data returned: inactive

Data request: Query: recorded result category for O=c1cc2cccccc-2cc1O in this test
Data returned: inactive

Data request: Query: recorded result category for C/C(=C/C(=O)/C=C/c1ccccc1)c1c(C)[nH]c2ccccc12 in this test
Data returned: inactive

Data request: Query: recorded result category for CCCCCCCCCCCCCCCCCC(=O)OCCOCCO in this test
Data returned: inactive

Data request: Query: recorded result category for Cc1ccc2nc(-c3ccc(N)cc3)sc2c1 in this test
Data returned: inactive

Data request: Query: recorded result category for C/C=C1/C=CC2c3[nH]c4ccccc4c3CCN2C1 (configuration not stated) in this test
Data returned: inactive

Data request: Query: recorded result category for C(=NCCC[Si]12OCCN(CCO1)CCO2)c1ccc(C=NCCC[Si]23OCCN(CCO2)CCO3)cc1 in this test
Data returned: inactive

Data request: Query: recorded result category for O=C(CC(O)(c1ccccc1)c1ccc(Cl)cc1)NC(=O)c1ccccc1O (configuration not stated) in this test
Data returned: inactive

Data request: Query: recorded result category for CC(OC(=O)Nc1cccc(Cl)c1)c1ccccc1 (configuration not stated) in this test
Data returned: inactive

Data request: Query: recorded result category for CCCCC(O)(c1ccc2nc(NC(=O)OC)[nH]c2c1)c1cccs1 (configuration not stated) in this test
Data returned: inactive

Data request: Query: recorded result category for CCc1ccccc1NC(=O)C(=O)C(C#N)c1c(Cl)cccc1Cl (configuration not stated) in this test
Data returned: inactive

Data request: Query: recorded result category for CCCCc1cc2c(cc1O)CCC1C2CC[C@@]2(C)C1CC[C@@H]2O (some centres not stated) in this test
Data returned: inactive

Data request: Query: recorded result category for CC1(C)CC(=O)C(CC2C(=O)c3ccccc3C2=O)C(=O)C1C(=O)C(=O)Nc1cccc2ccc(O)cc12 (configuration not stated) in this test
Data returned: inactive

Data request: Query: recorded result category for CCN(CC)CCNc1ccc(C)c2oc3ccc(O)cc3c(=O)c12 in this test
Data returned: inactive

Data request: Query: recorded result category for CCOC(=O)Cc1[nH]c(C(=O)c2ccccc2)cc1C(=O)c1ccccc1 in this test
Data returned: inactive

Data request: Query: recorded result category for O=c1ccc2nc3ccccc3ccc-2c1 in this test
Data returned: inactive

Data request: Query: recorded result category for COc1ccc(C(=O)Nc2ccc(Cl)cc2)cc1 in this test
Data returned: inactive

Data request: Query: recorded result category for O=C1OC2(CCN(Cc3ccccc3)CC2)C(=O)N1c1cccc(Cl)c1 in this test
Data returned: inactive

Data request: Query: recorded result category for COc1ccc(-c2n[nH]c(C(F)(F)F)c2N=NN(C)C)cc1OC in this test
Data returned: active

Data request: Query: recorded result category for COc1ccc(CSC(=S)Nc2cc(C)c(C)cc2[N+](=O)[O-])cc1 in this test
Data returned: inactive

Data request: Query: recorded result category for O=c1nc(-c2ccccc2)cc(-c2ccccc2O)[nH]1 in this test
Data returned: inactive

Data request: Query: recorded result category for CC(C)(c1ccc(OC#N)cc1)c1ccc(OC#N)cc1 in this test
Data returned: inactive

Data request: Query: recorded result category for O=C(c1cccnc1)N(C1CCCCC1)C1CCCCC1 in this test
Data returned: inactive

Data request: Query: recorded result category for O=C(O)c1ccc([N+](=O)[O-])o1 in this test
Data returned: inactive

Data request: Query: recorded result category for CCNc1cc(SC)nc(N)n1 in this test
Data returned: inactive

Data request: Query: recorded result category for COc1cc(CSc2ccc(O)cc2)cc(OC)c1OC in this test
Data returned: inactive

Data request: Query: recorded result category for CN(C)CC(CN1CCCC1)C(=O)c1ccccc1 (configuration not stated) in this test
Data returned: inactive

Data request: Query: recorded result category for O=C(NC1=C(Cl)C(=O)c2ccccc2C1=O)C(=O)C(C(=O)c1ccc2ccccc2c1)C1OC(=O)c2ccccc21 (configuration not stated) in this test
Data returned: inactive

Data request: Query: recorded result category for CN1CCS(=O)(=O)C1=O in this test
Data returned: inactive

Data request: Query: recorded result category for CCS(=O)(=O)c1ccc(NC(=O)OC2CCCCCCC2)cc1 in this test
Data returned: inactive

Each recorded value in this set is attributed to PubChem BioAssay (NCI).
